# tested target: PR (h) (Homo sapiens, UniProt P06401)
# Construct: T47D cells (cytosol)
# Sequence (P06401 679-933): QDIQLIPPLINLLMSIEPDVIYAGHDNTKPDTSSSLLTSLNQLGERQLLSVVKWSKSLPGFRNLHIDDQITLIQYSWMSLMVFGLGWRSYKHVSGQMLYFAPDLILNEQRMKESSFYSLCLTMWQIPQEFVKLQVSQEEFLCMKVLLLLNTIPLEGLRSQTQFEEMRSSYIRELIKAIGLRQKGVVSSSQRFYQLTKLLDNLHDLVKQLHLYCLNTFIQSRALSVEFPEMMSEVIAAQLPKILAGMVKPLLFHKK
# procedure summary: PR (h) (agonist radioligand) binding assay
parameter: IC50 (nM)
Output spec: scalar in nM, unitless text.

I would be grateful if you could share the reported IC50 for CCC(=O)[C@@]1(C)CC[C@H]2[C@@H]3CCC4=CC(=O)CCC4=C3CC[C@@]21C .
0.47

====

# tested target: UniProt A0ABM2YAB8
# Sequence (A0ABM2YAB8 1-231): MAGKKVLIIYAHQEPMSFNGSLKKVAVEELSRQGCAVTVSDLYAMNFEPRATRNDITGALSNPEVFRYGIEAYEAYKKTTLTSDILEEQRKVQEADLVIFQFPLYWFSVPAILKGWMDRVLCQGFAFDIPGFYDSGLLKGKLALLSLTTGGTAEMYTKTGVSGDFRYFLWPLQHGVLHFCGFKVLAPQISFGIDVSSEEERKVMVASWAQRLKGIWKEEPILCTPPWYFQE
parameter: pKi
Here pKi is given on a logarithmic scale as minus log10 of the concentration in mol/L.

I would be grateful if you could share the reported pKi for COc1ccc2[nH]cc(CCNC(C)=O)c2c1 .
7.15

====

# tested target: enzyme and uptake assay panel targets (Table 36) (Homo sapiens, UniProt O00408)
# procedure summary: biochemical
# Assay type: biochemical
# particulars: PDE2A1 (h); reference compound
parameter: IC50 (µM)
Output spec: scalar in µM, unitless text.

I would be grateful if you could share the reported IC50 for CCCCCC[C@@H]([C@@H](C)O)n1cnc2c(N)ncnc21 (racemic) .
1.1
